Recorded values, source patent US9902702B2.

Consider compounds characterized by their pIC50 with UniProt O75116.
pIC50: −log10 of the molar value.

Please review the entries below; each comes with its answer.
[[record]]
compound = "Cn1cc(-c2ccc(NC(=O)NC3CC4(C3)CC(c3n[nH]c(=O)c5ccccc35)C4)cc2)c(C(F)(F)F)n1 (stereo not shown)"
recorded_measurement = "7.82 to 8.29"

[[record]]
compound = "O=C(OC1CC2(C1)CC(c1n[nH]c(=O)c3ccccc13)C2)N1Cc2ccccc2C1 (stereo not shown)"
recorded_measurement = "5.68 to 7.00"


Consider the record given below.
Endpoint output: pIC50 of [H][C@]1(c2n[nH]c(=O)c3ccccc32)C[C@]2(C[C@@H](NC(=O)c3cccc(OCCN4CCOCC4)c3)C2)C1 (stereo partly shown) . Value?
7.00 to 7.82

----------
The following are reported pIC50 results, target or system ROCK2 (Homo sapiens).
pIC50: −log10 of the molar value.

Use the examples below as a reference point.
[[record]]
compound = "O=C(NC1CC2(C1)CC(c1n[nH]c(=O)c3ccccc13)C2)N1CCc2cc(-c3cnn(C4CC4)c3)ccc21 (stereo not shown)"
recorded_measurement = "8.70 to 9.70"

[[record]]
compound = "COCC(O)COc1ccn2ncc(C(=O)NC3CC4(C3)CC(c3n[nH]c(=O)c5ccccc35)C4)c2c1 (stereo not shown)"
recorded_measurement = "7.00 to 7.82"


Lab request: please report pIC50 under test system ROCK2 (Homo sapiens) for [H][C@]1(c2n[nH]c(=O)c3ccccc32)C[C@]2(C[C@@H](NC(=O)c3cnc4cc(NCC(C)(C)O)ccn34)C2)C1 (stereo partly shown)
8.30 to 8.70

Recall the recorded pIC50 for Cc1nn(C)c(C)c1-c1ccc2c(c1)CN(C(=O)NC1CC3(C1)CC(c1n[nH]c(=O)c4ccccc14)C3)C2 (stereo not shown) with ROCK2 (Homo sapiens) and state it.
8.30 to 8.70

Please tell me: pIC50 of O=C(Nc1ccc(-c2cnn(C3CC3)c2)cc1)NC1CC2(C1)CC(c1n[nH]c(=O)c3ccccc13)C2 (stereo not shown) , system ROCK2 (Homo sapiens)?
7.00 to 7.82

Test system ROCK2 (Homo sapiens); read-out pIC50; what value for Cc1ccc(-c2ncc3c(n2)CN(C(=O)NC2CC4(C2)CC(c2n[nH]c(=O)c5ccccc25)C4)C3)cc1 (stereo not shown) ?
5.68 to 7.00

Notebook entry, ROCK2 (Homo sapiens) assay: pIC50 of [H][C@]1(c2n[nH]c(=O)c3ccccc32)C[C@]2(C[C@@H](NC(=O)c3ccc4ccn(C)c4c3)C2)C1 (stereo partly shown) = ?
7.82 to 8.29

----------
Structures can show the parent of a compound that is named as a salt.
Here's what we have: IC50 numbers for UniProtKB O75116.

[[record]]
compound = "COCc1c(OCC(C)(C)O)ccc2c(C(=O)NC3CC4(C3)CC(c3n[nH]c(=O)c5ccccc35)C4)cnn12 (centres unmarked) [Example 113]"
recorded_measurement = "2.01 to 5 nM"


Test system UniProtKB O75116; read-out IC50; what value for [H][C@]1(c2n[nH]c(=O)c3ccccc32)C[C@]2(C[C@@H](NC(=O)c3cnc4c(C)cc(F)cn34)C2)C1 (some centres unmarked) [Example 405] ?
0.2 to 2 nM

Reported IC50 for UniProtKB O75116, given [H][C@]1(c2n[nH]c(=O)c3ccccc32)C[C@]2(C[C@@H](NC(=O)c3cnn4cc(COCC=C)ccc34)C2)C1 (some centres unmarked) [Example 212] ?
0.2 to 2 nM

Recall the recorded IC50 for O=C(NC1CC2(C1)CC(c1n[nH]c(=O)c3ccccc13)C2)N1Cc2ccc(-c3cnn(C4CCOCC4)c3)cc2C1 (centres unmarked) [Example 251] with UniProtKB O75116 and state it.
5.1 to 15 nM

Give the reported IC50 for Cc1nc(N2CCC(C#N)C2)sc1C(=O)NC1CC2(C1)CC(c1n[nH]c(=O)c3ccccc13)C2 (centres unmarked) [Example 39] (system: UniProtKB O75116).
5.1 to 15 nM

Query for UniProtKB O75116: what IC50 does the record show for O=C(N[C@H]1CC2(C1)C[C@H](c1n[nH]c(=O)c3ccccc31)C2)N1Cc2ccccc2C1 (some centres unmarked) [Example 51] ?
5.1 to 15 nM

Request - read-out IC50 | tested on UniProtKB O75116 | compound COC(=O)N1CCc2c(C(=O)N[C@H]3CC4(C3)C[C@H](c3n[nH]c(=O)c5ccccc53)C4)csc2C1 (some centres unmarked) [Example 275]
5.1 to 15 nM

Request: IC50, test system UniProtKB O75116, entry O=C(NC1CC2(C1)CC(c1n[nH]c(=O)c3ccccc13)C2)c1cnn2cc(-c3cnn(CC(O)C(F)(F)F)c3)ccc12 (centres unmarked) [Example 171]
2.01 to 5 nM

Given the entry O=C(NC1CC2(C1)CC(c1n[nH]c(=O)c3ccccc13)C2)c1cnn2cc(N3CCCC3)ccc12 (centres unmarked) [Example 87] , what IC50 was observed with UniProtKB O75116?
0.2 to 2 nM

Enter reported IC50 observed with UniProtKB O75116 for O=C(NC1CC2(C1)CC(c1n[nH]c(=O)c3ccccc13)C2)c1cnn2cc(OCC(F)F)ccc12 (centres unmarked) [Example 80]
0.2 to 2 nM

Look up IC50 with UniProtKB O75116 for this compound: N#Cc1ccc2c(C(=O)NC3CC4(C3)CC(c3n[nH]c(=O)c5ccccc35)C4)cnn2c1 (centres unmarked) [Example 168]
15.1 to 100 nM

So what IC50 did [H][C@]1(c2n[nH]c(=O)c3ccccc32)C[C@]2(C[C@@H](NC(=O)c3c(C)nc4ccccn34)C2)C1 (some centres unmarked) [Example 299] get with UniProtKB O75116?
15.1 to 100 nM

# query: IC50 | item CC(C)(O)Cn1nc(C(=O)NC2CC3(C2)CC(c2n[nH]c(=O)n4cccc24)C3)c2ccccc21 (centres unmarked) [Example 278, TFA] | system: UniProtKB O75116
5.1 to 15 nM

Lookup: IC50 / UniProtKB O75116 / Cn1cc(-c2ccc3c(C(=O)N[C@H]4CC5(C4)C[C@H](c4n[nH]c(=O)c6ccccc64)C5)onc3c2)cn1 (some centres unmarked) [Example 277]
0.2 to 2 nM

----------
// IC50 collected for ROCK2 (Homo sapiens, UniProt O75116)

[[record]]
compound = "CN(C)Cc1ccc2c(C(=O)NC3CC4(C3)CC(c3n[nH]c(=O)c5ccccc35)C4)cnn2c1 (stereo not shown)"
recorded_measurement = "5.1 to 15 nM"


Look up IC50 with ROCK2 (Homo sapiens, UniProt O75116) for this compound: O=C(CC1CC2(C1)CC(c1n[nH]c(=O)c3ccccc13)C2)N1CCc2ccccc21 (stereo not shown)
Sequence (O75116 whole entry, species assumed): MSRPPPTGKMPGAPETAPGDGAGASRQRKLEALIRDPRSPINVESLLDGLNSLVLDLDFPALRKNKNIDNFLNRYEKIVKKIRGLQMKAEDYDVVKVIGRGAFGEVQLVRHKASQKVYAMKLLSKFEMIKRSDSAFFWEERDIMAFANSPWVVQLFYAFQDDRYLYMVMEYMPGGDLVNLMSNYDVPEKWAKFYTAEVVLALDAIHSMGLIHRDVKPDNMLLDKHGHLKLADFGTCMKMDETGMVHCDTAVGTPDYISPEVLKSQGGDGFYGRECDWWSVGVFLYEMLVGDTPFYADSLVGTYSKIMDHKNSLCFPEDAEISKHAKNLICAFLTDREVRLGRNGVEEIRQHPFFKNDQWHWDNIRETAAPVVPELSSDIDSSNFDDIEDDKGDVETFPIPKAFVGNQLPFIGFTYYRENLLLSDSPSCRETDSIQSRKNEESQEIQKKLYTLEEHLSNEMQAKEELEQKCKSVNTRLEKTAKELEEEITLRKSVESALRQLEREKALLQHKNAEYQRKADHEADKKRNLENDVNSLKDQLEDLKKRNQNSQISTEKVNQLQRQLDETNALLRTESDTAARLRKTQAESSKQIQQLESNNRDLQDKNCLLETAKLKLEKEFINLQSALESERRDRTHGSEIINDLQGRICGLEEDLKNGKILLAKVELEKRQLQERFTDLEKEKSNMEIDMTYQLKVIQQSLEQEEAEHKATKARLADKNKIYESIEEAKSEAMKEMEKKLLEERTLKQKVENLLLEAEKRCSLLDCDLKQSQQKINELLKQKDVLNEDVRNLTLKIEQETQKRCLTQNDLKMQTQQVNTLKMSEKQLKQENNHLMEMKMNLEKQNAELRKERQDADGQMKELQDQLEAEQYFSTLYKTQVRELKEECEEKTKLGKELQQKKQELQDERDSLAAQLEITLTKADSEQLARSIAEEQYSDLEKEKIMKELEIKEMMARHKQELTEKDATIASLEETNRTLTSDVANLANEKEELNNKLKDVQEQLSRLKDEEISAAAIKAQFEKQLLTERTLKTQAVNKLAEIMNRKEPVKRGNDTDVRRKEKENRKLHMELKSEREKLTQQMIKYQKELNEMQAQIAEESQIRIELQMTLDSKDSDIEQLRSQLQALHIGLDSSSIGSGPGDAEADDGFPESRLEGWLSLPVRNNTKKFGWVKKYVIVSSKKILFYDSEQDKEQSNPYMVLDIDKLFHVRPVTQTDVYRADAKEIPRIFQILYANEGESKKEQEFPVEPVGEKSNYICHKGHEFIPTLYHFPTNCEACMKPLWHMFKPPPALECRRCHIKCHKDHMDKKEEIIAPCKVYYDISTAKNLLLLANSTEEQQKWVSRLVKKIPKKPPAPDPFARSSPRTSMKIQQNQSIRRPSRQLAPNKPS
15.1 to 100 nM

Reported IC50 for ROCK2 (Homo sapiens, UniProt O75116), given CC(C)(O)Cn1cc(C(=O)NC2CC3(C2)CC(c2n[nH]c(=O)c4ccccc24)C3)c2ccccc21 (stereo not shown) ?
0.2 to 2 nM

GET /values?readout=IC50&system=ROCK2 (Homo sapiens, UniProt O75116)&item= O=C(N[C@H]1CC2(C1)C[C@H](c1n[nH]c(=O)c3ccccc31)C2)c1ccn(CC(F)F)n1 (single isomer, unassigned)
2.01 to 5 nM

----------
pIC50: −log10 of the molar value. Where a name gives a salt, the structure may show the parent alone.
What follows is a record of pIC50 for UniProt O75116.

Solved cases (2 shown):
[[record]]
compound = "CC(C)(O)Cn1nc(C(=O)NC2CC3(C2)CC(c2n[nH]c(=O)c4ccccc24)C3)c2ccccc21 (single isomer, unassigned) [Example 21]"
parameter_measured = "pIC50"
recorded_measurement = "8.30 to 8.70"

[[record]]
compound = "[H][C@]1(c2n[nH]c(=O)c3ccccc32)C[C@]2(C[C@@H](NC(=O)N3CCc4ccccc43)C2)C1 (stereo partly drawn)"
parameter_measured = "pIC50"
recorded_measurement = "7.82 to 8.29"


Param readout = pIC50; param system = UniProt O75116; param query = O=C(NC1CC2(C1)CC(c1n[nH]c(=O)c3ccccc13)C2)c1cnn(C2CC2)c1 (stereo not drawn) ; response: value
7.82 to 8.29

// fetch UniProt O75116 pIC50 for CC(C)n1cc(-c2ccc3c(c2)CCN3C(=O)NC2CC3(C2)CC(c2n[nH]c(=O)c4ccccc24)C3)c(C(F)(F)F)n1 (stereo not drawn)
7.82 to 8.29

Given the entry O=C(NC1CC2(C1)CC(c1n[nH]c(=O)c3ccccc13)C2)c1cnn2ccncc12 (stereo not drawn) , what pIC50 was observed with UniProt O75116?
7.00 to 7.82

Kindly state the measured pIC50 obtained for [H][C@]1(c2n[nH]c(=O)c3ccccc32)C[C@]2(C[C@@H](NC(=O)c3ccc(-c4cn[nH]c4)c(OC)c3)C2)C1 (stereo partly drawn) with UniProt O75116.
8.70 to 9.70

Item Cn1nc(C(=O)NC2CC3(C2)CC(c2n[nH]c(=O)c4ccccc24)C3)c2ccccc21 (stereo not drawn) with UniProt O75116 - pIC50?
8.30 to 8.70

Query the reported pIC50 for UniProt O75116; item: COc1c(C(=O)NC2CC3(C2)CC(c2n[nH]c(=O)c4ccccc24)C3)nc2ccccn12 (stereo not drawn)
7.00 to 7.82

Hello, I am looking for reported pIC50 with UniProt O75116 for [H][C@]1(c2n[nH]c(=O)c3ccccc32)C[C@]2(C[C@@H](NC(=O)c3cnc4c(F)cc(C(F)(F)F)cn34)C2)C1 (stereo partly drawn) . Could you help?
7.00 to 7.82

Entry CC(C)(O)COc1ccc2c(C(=O)NC3CC4(C3)CC(c3n[nH]c(=O)c5ccccc35)C4)cnn2c1C1CC1 (stereo not drawn) , system UniProt O75116: what pIC50 was measured?
8.70 to 9.70

Give pIC50 (UniProt O75116) of the following compound: CC(C)(O)COc1ccc2c(C(=O)NC3CC4(C3)CC(c3n[nH]c(=O)c5ccccc35)C4)onc2c1 (stereo not drawn) [Example 287, TFA]
8.70 to 9.70

For the record Cn1cc(-c2ccn3ncc(C(=O)NC4CC5(C4)CC(c4n[nH]c(=O)c6ccccc46)C5)c3c2)cn1 (stereo not drawn) , what value of pIC50 is listed for UniProt O75116?
8.30 to 8.70
